- targetEntity: T1, hCD112R mFC recombinant protein (human; murine, UniProt Q6DKI7 41-160)
- T1 construct: range 41-160; expressed in 293E cells; also called hCD112R ECD mFC; hCD112R-ECD-mFC; not shown: murine IgG2a Fc domain (MX2-mFc vector)
- T1 sequence (looked up): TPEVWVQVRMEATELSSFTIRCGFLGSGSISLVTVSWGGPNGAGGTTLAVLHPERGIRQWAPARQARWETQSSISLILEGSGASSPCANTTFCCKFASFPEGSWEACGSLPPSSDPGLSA
- assayExplanation: FACS competition, hCD112R mFc on CHO CD112 cells
readout: IC50 (µg/mL)
Enter your answer as a number in µg/mL; do not include the unit.

Below are worked cases with known answers.
binder: Hu25 (antibody, IgG4, V domains shown, humanized IgG4) VH: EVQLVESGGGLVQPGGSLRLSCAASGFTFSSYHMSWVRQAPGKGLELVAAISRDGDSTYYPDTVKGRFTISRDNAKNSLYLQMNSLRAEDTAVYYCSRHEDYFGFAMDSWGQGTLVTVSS VL: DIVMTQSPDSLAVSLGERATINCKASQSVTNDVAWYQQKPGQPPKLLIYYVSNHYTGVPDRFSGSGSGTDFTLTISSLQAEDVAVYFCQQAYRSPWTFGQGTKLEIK
IC50 / µg/mL: 3.7
//
binder: Hu55 (antibody, IgG4, V domains shown, humanized IgG4) VH: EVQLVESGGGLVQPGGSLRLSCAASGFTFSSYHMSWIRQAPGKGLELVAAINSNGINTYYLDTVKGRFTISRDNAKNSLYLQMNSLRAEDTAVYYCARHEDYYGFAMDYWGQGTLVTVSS VL: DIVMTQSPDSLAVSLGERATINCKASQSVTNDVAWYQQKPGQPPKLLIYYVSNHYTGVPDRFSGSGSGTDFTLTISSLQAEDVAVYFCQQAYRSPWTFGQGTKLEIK
IC50 / µg/mL: 2.81

Look up IC50: Hu2 (antibody, IgG4, V domains shown, humanized IgG4; also called Hu-02) VH: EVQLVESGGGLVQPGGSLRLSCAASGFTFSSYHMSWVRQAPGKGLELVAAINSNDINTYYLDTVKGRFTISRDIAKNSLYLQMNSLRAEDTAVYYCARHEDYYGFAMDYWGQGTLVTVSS VL: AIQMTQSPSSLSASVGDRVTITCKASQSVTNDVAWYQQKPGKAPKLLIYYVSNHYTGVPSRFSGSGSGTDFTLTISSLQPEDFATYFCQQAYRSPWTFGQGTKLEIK 4.28

Requested read-out: IC50. Entry: Hu21 (antibody, IgG4, V domains shown, humanized IgG4) VH: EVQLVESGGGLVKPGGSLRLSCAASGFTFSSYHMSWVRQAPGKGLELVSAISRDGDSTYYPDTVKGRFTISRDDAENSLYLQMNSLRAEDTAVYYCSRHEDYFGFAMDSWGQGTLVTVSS VL: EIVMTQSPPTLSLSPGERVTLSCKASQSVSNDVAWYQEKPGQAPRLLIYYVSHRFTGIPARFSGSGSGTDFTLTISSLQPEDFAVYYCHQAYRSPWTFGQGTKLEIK 2.44

Item Hu14 (antibody, IgG4, V domains shown, humanized IgG4) VH: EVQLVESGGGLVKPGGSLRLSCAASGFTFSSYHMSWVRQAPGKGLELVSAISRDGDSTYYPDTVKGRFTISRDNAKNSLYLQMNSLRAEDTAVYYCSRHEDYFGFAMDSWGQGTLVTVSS VL: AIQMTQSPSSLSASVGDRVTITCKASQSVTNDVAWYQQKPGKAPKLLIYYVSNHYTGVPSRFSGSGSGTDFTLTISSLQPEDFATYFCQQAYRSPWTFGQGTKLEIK has what recorded IC50? 2.21

Give its IC50 value. Item: Hu9 (antibody, IgG4, V domains shown, humanized IgG4; also called Hu-09) VH: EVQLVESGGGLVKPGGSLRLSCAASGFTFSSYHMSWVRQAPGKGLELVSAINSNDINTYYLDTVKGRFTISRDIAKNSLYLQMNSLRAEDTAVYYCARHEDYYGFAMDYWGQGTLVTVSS VL: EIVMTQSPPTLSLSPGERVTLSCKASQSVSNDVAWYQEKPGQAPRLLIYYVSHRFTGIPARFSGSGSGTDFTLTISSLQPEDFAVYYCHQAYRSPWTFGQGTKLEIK 4.08

Report IC50 for Hu34 (antibody, IgG4, V domains shown, humanized IgG4) VH: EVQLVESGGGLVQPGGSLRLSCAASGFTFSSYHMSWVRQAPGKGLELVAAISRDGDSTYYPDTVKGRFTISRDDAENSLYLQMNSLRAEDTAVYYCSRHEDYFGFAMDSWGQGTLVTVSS VL: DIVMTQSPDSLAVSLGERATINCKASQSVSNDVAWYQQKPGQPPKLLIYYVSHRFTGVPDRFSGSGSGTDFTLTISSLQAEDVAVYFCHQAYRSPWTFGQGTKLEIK please. 2.4

Fill in the blank: the reported IC50 of Hu3 (antibody, IgG4, V domains shown, humanized IgG4; also called Hu-03) VH: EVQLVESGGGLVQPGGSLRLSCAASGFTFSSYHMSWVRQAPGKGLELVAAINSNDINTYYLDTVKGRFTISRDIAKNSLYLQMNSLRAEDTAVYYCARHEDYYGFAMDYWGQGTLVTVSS VL: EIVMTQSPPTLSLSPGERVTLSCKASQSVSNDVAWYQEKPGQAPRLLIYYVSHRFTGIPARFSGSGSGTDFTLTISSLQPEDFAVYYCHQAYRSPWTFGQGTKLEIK is ____. 4.24

Param item = Hu53 (antibody, IgG4, V domains shown, humanized IgG4) VH: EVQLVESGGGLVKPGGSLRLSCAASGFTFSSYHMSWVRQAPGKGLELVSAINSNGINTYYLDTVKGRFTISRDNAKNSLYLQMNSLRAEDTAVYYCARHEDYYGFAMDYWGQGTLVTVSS VL: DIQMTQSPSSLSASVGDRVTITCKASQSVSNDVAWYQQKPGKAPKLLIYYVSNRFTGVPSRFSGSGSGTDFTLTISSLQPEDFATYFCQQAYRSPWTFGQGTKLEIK ; retrieve measured IC50. 3.18

What does the data say about its IC50? Entry: Hu49 (antibody, IgG4, V domains shown, humanized IgG4) VH: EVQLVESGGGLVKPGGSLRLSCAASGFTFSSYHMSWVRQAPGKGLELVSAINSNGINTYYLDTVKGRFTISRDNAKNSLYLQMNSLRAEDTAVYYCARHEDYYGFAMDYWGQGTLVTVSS VL: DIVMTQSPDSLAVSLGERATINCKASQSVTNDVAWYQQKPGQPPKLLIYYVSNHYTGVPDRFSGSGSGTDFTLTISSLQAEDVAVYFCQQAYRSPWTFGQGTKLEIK 2.47
